- ASSAY EXPLANATION: Back of the eye drug exposure (PK) after topical instillation of compound MPP
- Assay type: in vivo
- MEASUREMENT SETUP: rabbit, retina, topical or ocular, 50 μL of 0.5% MPP formulation; MPP 0.5%, 50 μL topical BID 5 days, Dutch-belted rabbits, 8 mm punch; read-out: AUC0-last Retina
ASSAY METRIC: AUC(0-t) (nM·h)

| COMPOUND | ASSAY METRIC | UNIT SPEC | MEASURED |
| --- | --- | --- | --- |
| COc1cc2c(Oc3ccc(NC(=O)Nc4cc(C)ccc4F)c(Cl)c3)ccnc2cc1OCCCN1CCC2(CC1)COC2 [Compound 25] | AUC(0-t) | nM·h | 297 |

a: COc1cc2c(Oc3ccc(NC(=O)Nc4cc(C)ccc4F)c(Cl)c3)ncnc2cc1OCCCN1CCC2(CC1)COC2 [Compound 12]
b: COc1cc2c(Oc3ccc(NC(=O)Nc4cc(C)on4)c(Cl)c3)ncnc2cc1OCCCN1CCC2(CC1)COC2 [Compound 9]
For a and b , which recorded AUC(0-t) is lower? Please reply using the label of the selected record.
a
(a: 308 nM·h, b: 915 nM·h)

These data points were gathered from patent US10398703B2.
